Assay text: S16 Schwann cell viability assay (CellTiter-Glo assay) (AID 624031);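 note: native untransfected S16 rat Schwann cells; cellular ATP luminescence as a viability measure; plate controls were DMSO-treated cells for no effect and cell-free wells for full effect; nearly all actives have a fitted effect of over 70% in size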
Condition details: S16 rat Schwann cells viability, 24 h; series mostly up to 57.5 µM
Records with an inconclusive call do not appear. Active and inactive are the calls of the source. Calls come from the whole dose curve; as a rule, active = well fitted cell-killing curve with a large enough effect; inconclusive = small, poorly fitted or top-dose-only effect, or effect the other way; inactive = flat fitted curve, though single readings scatter.
Classes to choose from: active, inactive

State the result this test recorded for CN(C)CCc1ccc(O)cc1 .
inactive

---

System: JCK
Assay text: qHTS profiling for inhibitors of Plasmodium falciparum proliferation (AID 504749); note: nearly all actives have a fitted effect of over 60% in size
Condition details: P. falciparum in erythrocytes, SYBR Green DNA, 72 h; series mostly up to 28.7 µM
Results filed as inconclusive are left out. Active and inactive are the calls of the source. The call rests on the fitted dose curve; in most records, active means well fitted inhibition curve with a large enough effect; inconclusive means small, poorly fitted or top-dose-only effect; inactive means flat fitted curve, though single readings scatter.
Classes to choose from: True for active, False for inactive

The following molecules have reported results that may help.
[
  {
    "Molecule": "Clc1ccc(COC(Cn2ccnc2)c2ccc(Cl)cc2Cl)cc1 (stereo unspecified)",
    "Qualitative label": "True"
  },
  {
    "Molecule": "Oc1cccc2cccnc12",
    "Qualitative label": "False"
  },
  {
    "Molecule": "Nc1ccncc1",
    "Qualitative label": "False"
  }
]

State the result this test recorded for CC(=O)[C@H]1CC[C@H]2[C@@H]3CC[C@H]4C[C@H](O)CC[C@]4(C)[C@H]3C(=O)C[C@]12C .
False

State the result this test recorded for COc1ccc(C(CN(C)C)C2(O)CCCCC2)cc1 (stereo unspecified) .
False

---

Entries and their Potency
Assay text: Confirmatory qHTS to identify inhibitors of SARS-CoV-2 cell entry (AID 1645844); note: potency is the fitted concentration of half-maximal effect; nearly all actives have a fitted effect of over 45% in size
Condition details: SARS-CoV-2 pseudotyped particle cell entry, luciferase; series mostly up to 57.2 µM
Records with an inconclusive call do not appear. Calls of active or inactive are those of the source. Calls come from the whole dose curve. Numbered stars: 1 amine (or outer) side, 2 acyl side, 3 side chain; on linkers, the order of the positions; unused ones are H or OH. Bridge positions count the residues as written; N and C are the ends. Square brackets hold non-standard residues; d marks the D form. Peptide text beside a SMILES is read from it. I, II: the chains in the order shown. Actinocin(9to1) = Cc1c2oc3c(C)ccc(C(=O)[*:1])c3nc-2c(C(=O)[*:2])c(N)c1=O; NMeV = CN[C@H](C(=O)O)C(C)C; Sar = CNCC(=O)O

Example entries and their recorded answers appear below.
[
  {
    "Compound": "COc1c(C)c2c(c(O)c1C/C=C(\\C)CCC(=O)O)C(=O)OC2",
    "Potency": "0.607 µM (active)"
  },
  {
    "Compound": "CCc1c2c(nc3ccc(OC(=O)N4CCC(N5CCCCC5)CC4)cc13)-c1cc3c(c(=O)n1C2)COC(=O)[C@]3(O)CC",
    "Potency": "0.136 µM (active)"
  },
  {
    "Compound": "CC(CN(C)C)CN1c2ccccc2CCc2ccccc21 (configuration not stated)",
    "Potency": "7.64 µM (active)"
  },
  {
    "Compound": "N[C@@H](Cc1ccc(N(CCCl)CCCl)cc1)C(=O)O",
    "Potency": "0.681 µM (active)"
  },
  {
    "Compound": "CNCCC(Oc1ccc(C(F)(F)F)cc1)c1ccccc1 (configuration not stated)",
    "Potency": "6.81 µM (active)"
  },
  {
    "Compound": "O=C(O)c1ccc(-n2nc(-c3ccccc3O)nc2-c2ccccc2O)cc1",
    "Potency": "30.4 µM (active)"
  },
  {
    "Compound": "C=C(CC)C(=O)c1ccc(OCC(=O)O)c(Cl)c1Cl",
    "Potency": "8.57 µM (active)"
  },
  {
    "Compound": "Cc1c2oc3c(C)ccc(C(=O)N[C@@H]4C(=O)N[C@H](C(C)C)C(=O)N5CCC[C@H]5C(=O)N(C)CC(=O)N(C)[C@@H](C(C)C)C(=O)O[C@@H]4C)c3nc-2c(C(=O)N[C@@H]2C(=O)N[C@H](C(C)C)C(=O)N3CCC[C@H]3C(=O)N(C)CC(=O)N(C)[C@@H](C(C)C)C(=O)O[C@@H]2C)c(N)c1=O (I: T[dV]P[Sar][NMeV] / II: T[dV]P[Sar][NMeV]; ester I:1-I:C, II:1-II:C; linker I:N-II:N via Actinocin(9to1))",
    "Potency": "0.0764 µM (active)"
  }
]

Now take the following compound into account.
Quick one: Potency for COc1cc(Nc2c(C#N)cnc3cc(OCCCN4CCN(C)CC4)c(OC)cc23)c(Cl)cc1Cl ?
19.2 µM (active)

---

Assay text: Cell Viability - LYMP2-010 (AID 981);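 note: cells exposed to compound for 24 hours at 37 °C; nearly all actives have a fitted effect of over 55% in size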
Condition details: LYMP2-010 lymphoblastoid cell viability, qHTS; series mostly up to 92.2 µM
Results filed as inconclusive are left out. The source made the active and inactive calls. Calls come from the whole dose curve; as a rule, active = well fitted cell-killing curve with a large enough effect; inconclusive = small, poorly fitted or top-dose-only effect; inactive = flat fitted curve, though single readings scatter.
Classes to choose from: 1.0 (active), 0.0 (inactive)

The following compounds have reported results that may help.
[
  {
    "Compound": "CCOP(=S)(OCC)Oc1cc(C)nc(C(C)C)n1",
    "Qualitative label": 0.0
  },
  {
    "Compound": "Oc1ccccc1-c1ccccc1",
    "Qualitative label": 0.0
  },
  {
    "Compound": "c1ccc2c(c1)Nc1ccccc1S2",
    "Qualitative label": 0.0
  },
  {
    "Compound": "CC(=O)Oc1ccccc1C(=O)Nc1ncc([N+](=O)[O-])s1",
    "Qualitative label": 1.0
  },
  {
    "Compound": "OCCOc1ccccc1",
    "Qualitative label": 0.0
  },
  {
    "Compound": "C[C@]12C/C(=C/O)C(=O)C[C@@H]1CC[C@@H]1[C@@H]2CC[C@@]2(C)[C@H]1CC[C@]2(C)O",
    "Qualitative label": 1.0
  },
  {
    "Compound": "CCCC(C)(COC(N)=O)COC(=O)NC(C)C (centres undefined)",
    "Qualitative label": 0.0
  },
  {
    "Compound": "Oc1ccc(Cl)cc1Cc1ccccc1",
    "Qualitative label": 0.0
  }
]

# next compound below
State the result this test recorded for N[C@@H](Cc1ccc(N(CCCl)CCCl)cc1)C(=O)O .
1.0

---

Tested on: CP217
Assay text: qHTS profiling for inhibitors of Plasmodium falciparum proliferation (AID 504749); note: nearly all actives have a fitted effect of over 60% in size
Condition details: P. falciparum in erythrocytes, SYBR Green DNA, 72 h; series mostly up to 28.7 µM
Inconclusive results are not listed. Calls of active or inactive are those of the source. Calls come from the whole dose curve; as a rule, active = well fitted inhibition curve with a large enough effect; inconclusive = small, poorly fitted or top-dose-only effect; inactive = flat fitted curve, though single readings scatter.
Classes to choose from: active, inactive

The following compounds have reported results that may help.
[
  {
    "Compound": "CC(=O)Nc1cc([As](=O)(O)O)ccc1O",
    "Qualitative label": "inactive"
  },
  {
    "Compound": "Oc1cccc2cccnc12",
    "Qualitative label": "inactive"
  },
  {
    "Compound": "CCOP(=S)(OCC)Oc1cc(C)nc(C(C)C)n1",
    "Qualitative label": "inactive"
  },
  {
    "Compound": "CCCC1CCCCN1 (stereo not given)",
    "Qualitative label": "inactive"
  },
  {
    "Compound": "CC(C)CC(N(C)C)C1(c2ccc(Cl)cc2)CCC1 (stereo not given)",
    "Qualitative label": "inactive"
  },
  {
    "Compound": "C[C@]12C/C(=C/O)C(=O)C[C@@H]1CC[C@@H]1[C@@H]2CC[C@@]2(C)[C@H]1CC[C@]2(C)O",
    "Qualitative label": "inactive"
  },
  {
    "Compound": "CCN(C(C)=O)c1cccc(-c2ccnc3c(C#N)cnn23)c1",
    "Qualitative label": "inactive"
  },
  {
    "Compound": "Cc1ncc(CNC(=O)N(CCCl)N=O)c(N)n1",
    "Qualitative label": "inactive"
  },
  {
    "Compound": "CCN(CC)CCN1C(=O)CN=C(c2ccccc2F)c2cc(Cl)ccc21",
    "Qualitative label": "inactive"
  },
  {
    "Compound": "NP(N)(=O)NC(=O)c1ccc(F)cc1",
    "Qualitative label": "inactive"
  }
]

State the result this test recorded for C=C1CC[C@@]2(O)[C@H]3Cc4ccc(O)c5c4[C@@]2(CCN3CC2CC2)[C@H]1O5 .
inactive

---

Assay text: qHTS for Inhibitors of the Functional Ribonucleoprotein Complex (vRNP) of Lymphocytic Choriomeningitis Arenaviruses (LCMV): Viability assay - alamar blue signal for LCMV Primary Screen (AID 1347085); note: nearly all actives have a fitted effect of over 80% in size
Condition details: alamar blue viability counter-screen, LCMV vRNP screen cells; series mostly up to 57.5 µM
Results filed as inconclusive are left out. Active and inactive are the calls of the source. Calls follow the shape of the full dose curve; tested in HEK293 reporter line.
Classes to choose from: 1 (yes) for active, 0 (no) for inactive

[
  {
    "Compound": "CC(C)(C)CC(C)(C)c1ccc(O)cc1",
    "Qualitative label": "0 (no)"
  },
  {
    "Compound": "Cc1ccc(-c2nc3ccc(C)cn3c2CC(=O)N(C)C)cc1",
    "Qualitative label": "0 (no)"
  },
  {
    "Compound": "C[C@H]1c2cccc(O)c2C(O)=C2C(=O)[C@]3(O)C(O)=C(C(N)=O)C(=O)[C@@H](N(C)C)[C@@H]3[C@@H](O)[C@@H]21",
    "Qualitative label": "0 (no)"
  },
  {
    "Compound": "O[C@@H]1CO[C@H]2[C@@H]1OC[C@@H]2O",
    "Qualitative label": "0 (no)"
  },
  {
    "Compound": "C=C(c1ccc(C(=O)O)cc1)c1cc2c(cc1C)C(C)(C)CCC2(C)C",
    "Qualitative label": "0 (no)"
  },
  {
    "Compound": "CC(C)C(=O)Nc1ccc([N+](=O)[O-])c(C(F)(F)F)c1",
    "Qualitative label": "0 (no)"
  },
  {
    "Compound": "c1ccc(C2CC2)c(OCC2=NCCN2)c1",
    "Qualitative label": "0 (no)"
  },
  {
    "Compound": "CN(CCOc1ccc(CC2SC(=O)NC2=O)cc1)c1ccccn1 (centres undefined)",
    "Qualitative label": "0 (no)"
  },
  {
    "Compound": "C1N2CN3CN1CN(C2)C3",
    "Qualitative label": "0 (no)"
  },
  {
    "Compound": "COc1cc2c(N3CCN(C(=O)Nc4ccc(OC(C)C)cc4)CC3)ncnc2cc1OCCCN1CCCCC1",
    "Qualitative label": "0 (no)"
  }
]

State the result this test recorded for CC(C)C[C@H](NC(=O)[C@H](CCc1ccccc1)NC(=O)CN1CCOCC1)C(=O)N[C@@H](Cc1ccccc1)C(=O)N[C@@H](CC(C)C)C(=O)[C@@]1(C)CO1 .
1 (yes)

State the result this test recorded for Cc1ccccc1C(OCCN(C)C)c1ccccc1 (centres undefined) .
0 (no)

State the result this test recorded for CN1CCN(C2=Nc3ccccc3Oc3ccc(Cl)cc32)CC1 .
0 (no)

State the result this test recorded for O=C(c1ccccc1)c1ccc2n1CCC2C(=O)O (centres undefined) .
0 (no)

State the result this test recorded for COc1ccc([C@@H]2Sc3ccccc3N(CCN(C)C)C(=O)[C@@H]2OC(C)=O)cc1 .
0 (no)

State the result this test recorded for N[C@@H]1C[C@H]1c1ccccc1 .
0 (no)
